Can you tell me composite z-score for the items I'm about to list?
Tested on: Chordin-like protein 2 (CHRDL2)
ASSAY EXPLANATION: CHRDL2 small-molecule binders, primary screen, biochemical, small-molecule microarray, 635 nm fluorescence (AID 1126);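 further: printed compound slides probed with Chrdl2 protein at 4 µg/mL for 1 h at 4 C; score merges 667 nm emission intensity with signal to noise over three replicate slides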
CONDITION SET: small-molecule microarray binding, fluorescence 635 nm; higher = more signal

// recorded composite z-score for COc1ccc([Si](C)(C)[C@@H]2[C@@H](CCn3cc([C@H](O)c4ccccc4)nn3)O[C@]3(C(=O)N(Cc4cccc(N5C(=O)c6cccc7cccc5c67)c4)c4ccccc43)[C@H]2C)cc1 : -1.09

// recorded composite z-score for CCCCCN1CC=CC23O[C@@H]4/C=C\CCC(C)OC(=O)C4[C@H]2C(=O)N(CCCCCCO)[C@@H]3C1=O (some centres undefined) : -0.41

// recorded composite z-score for CC(C)C(=C=CC[C@@H](O)c1cccc(OCCO)c1)C[C@@H](O)COCc1ccccc1 : -0.456

// recorded composite z-score for O=C1O[C@H](c2ccccc2)[C@H](c2ccccc2)N2[C@H]1[C@@H](C(=O)N1CCCCCCC1)[C@]1(C(=O)Nc3ccc(C#CC4(O)CCCCCC4)cc31)[C@H]2c1ccc(O)cc1 : 1.39
